Taken from ChEMBL document CHEMBL2046301.

test system: L929; experiment: Cytotoxicity against mouse L929 cells at 0.1 mM after 24 hrs by MTT assay; assay type: cell-based; details: l929, 24 h, 100 µM

Item smiles	Activity
Cc1cc(NS(=O)(=O)c2ccc(N3C(=O)c4c(F)c(F)c(F)c(F)c4C3=O)cc2)no1	Toxic
O=C(NS(=O)(=O)c1ccc(N2C(=O)c3ccccc3C2=O)cc1)c1ccccc1	Non-toxic
O=C1c2ccccc2C(=O)N1c1ccc(S(=O)(=O)Nc2nccs2)cc1	Non-toxic
